biological target: hAC1 (Homo sapiens, UniProt Q08828); construct: expressed in transfected cells; experiment: Cyclic AMP accumulation in HEK cells stably expressing AC1, stimulated with A23187 (HTRF); format: cell-based; conditions: HEK293; HEK-AC1 cells, 30 μM
Sequence (Q08828 whole entry): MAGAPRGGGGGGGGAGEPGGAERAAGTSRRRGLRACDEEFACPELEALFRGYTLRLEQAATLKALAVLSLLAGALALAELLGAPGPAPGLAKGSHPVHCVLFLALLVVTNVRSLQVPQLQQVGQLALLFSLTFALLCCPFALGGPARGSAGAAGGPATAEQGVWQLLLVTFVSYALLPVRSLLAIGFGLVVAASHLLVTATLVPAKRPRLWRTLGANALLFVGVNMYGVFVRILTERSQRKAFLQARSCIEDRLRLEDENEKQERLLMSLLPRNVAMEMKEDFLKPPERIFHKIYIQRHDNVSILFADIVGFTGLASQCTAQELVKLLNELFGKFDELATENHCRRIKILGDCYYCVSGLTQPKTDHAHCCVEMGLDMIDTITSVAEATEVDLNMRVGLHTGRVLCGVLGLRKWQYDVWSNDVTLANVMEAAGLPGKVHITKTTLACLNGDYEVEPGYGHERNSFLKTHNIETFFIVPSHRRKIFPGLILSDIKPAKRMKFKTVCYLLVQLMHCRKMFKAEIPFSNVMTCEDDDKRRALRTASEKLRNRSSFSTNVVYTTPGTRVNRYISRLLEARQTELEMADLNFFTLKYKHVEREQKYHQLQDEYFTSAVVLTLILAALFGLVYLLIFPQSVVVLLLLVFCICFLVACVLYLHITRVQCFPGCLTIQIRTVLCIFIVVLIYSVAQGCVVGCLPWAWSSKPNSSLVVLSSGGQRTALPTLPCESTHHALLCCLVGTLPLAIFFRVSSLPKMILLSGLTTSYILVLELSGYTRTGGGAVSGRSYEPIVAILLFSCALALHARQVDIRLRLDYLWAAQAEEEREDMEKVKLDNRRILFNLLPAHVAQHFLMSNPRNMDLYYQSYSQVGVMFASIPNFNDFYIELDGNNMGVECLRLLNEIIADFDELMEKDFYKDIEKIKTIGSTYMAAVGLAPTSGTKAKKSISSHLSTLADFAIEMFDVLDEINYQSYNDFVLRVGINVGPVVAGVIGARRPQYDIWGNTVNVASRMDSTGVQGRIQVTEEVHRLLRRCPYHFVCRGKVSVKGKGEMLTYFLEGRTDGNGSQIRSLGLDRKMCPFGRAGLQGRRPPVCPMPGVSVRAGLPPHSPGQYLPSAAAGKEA
Could you please report measured inhibition at 30 µM for the items listed next?
One number for each entry, in %.

Please review the entries below; each comes with its answer.
- compoundString: "Cc1cc(C(=O)Nc2nnc(-c3ccc4c(c3)CCCC4)o2)cc(C(F)(F)F)c1"
  observedProperty: "inhibition at 30 µM"
  observed: 85
- compoundString: "O=C(Nc1nnc(-c2ccc3c(c2)CCCC3)o1)c1ccc(F)cc1"
  observedProperty: "inhibition at 30 µM"
  observed: 98
- compoundString: "CCc1ccc(C(=O)Nc2nnc(-c3ccc(F)cc3)o2)cc1"
  observedProperty: "inhibition at 30 µM"
  observed: 88
- compoundString: "O=C(Nc1nnc(-c2ccc3c(c2)OCCO3)o1)c1ccc(Br)cc1"
  observedProperty: "inhibition at 30 µM"
  observed: 101
- compoundString: "O=C(Nc1nnc(-c2ccc(F)cc2)o1)c1ccc(Cl)cc1"
  observedProperty: "inhibition at 30 µM"
  observed: 76
- compoundString: "O=C(Nc1nnc(-c2ccc(F)cc2)o1)c1cccc(-c2ccccc2)c1"
  observedProperty: "inhibition at 30 µM"
  observed: 98

Kindly give each listed record's inhibition at 30 µM.
1. Cc1ccc(C(=O)Nc2nnc(C3CCCCC3)o2)cc1C
2. Cc1ccc(C(=O)Nc2nnc(-c3ccc4c(c3)OCCO4)o2)cc1

Response:
[85, 86]

Kindly give each listed record's inhibition at 30 µM.
1. CCc1ccc(C(=O)Nc2nnc(-c3ccc4c(c3)CCCC4)o2)cc1
2. Cc1cc(C(=O)Nc2nnc(-c3ccc(F)cc3)o2)cc(C(F)(F)F)c1
3. CSc1cccc(C(=O)Nc2nnc(-c3ccc4c(c3)CCCC4)o2)c1
4. O=C(Nc1nnc(-c2ccc(F)cc2)o1)c1ccc(-c2ccccc2)cc1
5. Cc1ccc(C(=O)Nc2nnc(-c3ccc4c(c3)CCCC4)o2)cc1C(F)(F)F

Response:
1. 98
2. 99
3. 97
4. 97
5. 64
